Tested on: U2OS
PROTOCOL: cell viability relative to DMSO; higher = less toxic
STATED_CONDITIONS: 72 h; 1000 nM
READOUT_LABEL: cell viability (%)
Give your result in % as a bare value.

Q: Looking for the measured cell viability of CCCCN(CCCC)CC(O)c1cc(Cl)cc2c1-c1ccc(Cl)cc1/C2=C/c1ccc(Cl)cc1 (stereo unspecified) , can you help?
A: 103

Q: Looking for the measured cell viability of Cc1ccc(S(=O)(=O)N2CCC[C@H]2c2ccc(F)cc2)cc1 , can you help?
A: 99.4

Q: Looking for the measured cell viability of C[C@@H](O)[C@H]1C(=O)N2C(C(=O)O)=C(SCCNC=N)C[C@H]12 , can you help?
A: 97.4

Q: Looking for the measured cell viability of CSc1ccc(C(=O)/C=C/c2cc(C)c(OC(C)(C)C(=O)O)c(C)c2)cc1 , can you help?
A: 98.1

Q: Looking for the measured cell viability of CCN(CC)CCOC(=O)c1cc(Cl)c(N)cc1OC , can you help?
A: 103

Q: Looking for the measured cell viability of Cc1cc(I)ccc1Nc1c(C(=O)NOCC2CC2)cc(F)c(F)c1F , can you help?
A: 89.6
